Test system: Plasmodium falciparum NF54/iGP1_RE9H ulg8 stage V gametocytes
methodSummary: gametocyte viability (luciferase signal relative to DMSO control) (% of DMSO control); higher = less gametocytocidal activity, active = 50 or less
protocolConditions: concentration: 10 µM; exposure time: 72 h
Where a name gives a salt, the structure may show the parent alone.
Labels: T = active, F = inactive

{"columns": ["molecule", "subjectOfTest", "assignedClass"],
 "data": [
  ["O=C(CCCCCCC(=O)Nc1ccccc1)NO", "Plasmodium falciparum NF54/iGP1_RE9H ulg8 stage V gametocytes", "F"],
  ["CC(C)(C)c1ccc(C(=O)NC(=S)Nc2ccc(N)cc2)cc1 [Tenovin-3]", "Plasmodium falciparum NF54/iGP1_RE9H ulg8 stage V gametocytes", "F"],
  ["NC(=O)[C@H](CCCN=C(N)CCl)NC(=O)c1ccccc1 [Cl-Amidine (hydrochloride)]", "Plasmodium falciparum NF54/iGP1_RE9H ulg8 stage V gametocytes", "F"],
  ["CCCCNNC(=O)c1ccc(Br)cc1", "Plasmodium falciparum NF54/iGP1_RE9H ulg8 stage V gametocytes", "F"],
  ["Nc1nccc2c1ncn2C1C=C(CO)C(O)C1O (centres undefined) [3-Deazaneplanocin A]", "Plasmodium falciparum NF54/iGP1_RE9H ulg8 stage V gametocytes", "F"],
  ["COC(=O)/C=C/C(=O)N(O)CCCCNCc1ccc(COC(=O)Nc2cccc3ccccc23)cc1 [Methylstat (hydrate)]", "Plasmodium falciparum NF54/iGP1_RE9H ulg8 stage V gametocytes", "T"],
  ["O=c1[nH]c(=S)[nH]c(-c2ccccc2)c1Cc1c(O)ccc2ccccc12 [SIRT1/2 Inhibitor IV]", "Plasmodium falciparum NF54/iGP1_RE9H ulg8 stage V gametocytes", "F"],
  ["CC(C)N(CCCNC(=O)Nc1ccc(C(C)(C)C)cc1)C[C@H]1O[C@@H](n2ccc3c(N)ncnc32)[C@H](O)[C@@H]1O", "Plasmodium falciparum NF54/iGP1_RE9H ulg8 stage V gametocytes", "F"],
  ["CC1(C)C(=O)NC2=C1C(=O)C(=O)c1ccccc12", "Plasmodium falciparum NF54/iGP1_RE9H ulg8 stage V gametocytes", "F"]
]}

These entries and their values trace back to the supplement of paper PMC12297408.
